// collision cross section in nitrogen lookup, one value per entry
test: collision cross section in nitrogen (drift tube, single-field); higher = larger gas-phase ion size; settings: ion type: [M-H]; ion source: ESI; ion mode: Negative;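 note: chemical standards at 10 µM analysed by drift tube IMS-QTOF MS in about 3.95 torr nitrogen, mean of duplicate injections differing ≤1%, mass error below 10 ppm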
Response body: numeric value in Å², unit text excluded.

- Compound: "CC[C@H](C)[C@@H](C(=O)O)n1sc2ccccc2c1=O"
  collision cross section in nitrogen / Å²: 159.8
- Compound: "O=C(NC(=O)c1c(F)cccc1F)Nc1cc(Cl)c(F)c(Cl)c1F"
  collision cross section in nitrogen / Å²: 178.7
- Compound: "CCCC(CCC)C(=O)O"
  collision cross section in nitrogen / Å²: 137.1

Fill blank: measured collision cross section in nitrogen of the compound O=[N+]([O-])O [Potassium nitrate] is ____.
104.9
